Biological target: Vasopressin V1b receptor (Homo sapiens, UniProt P47901)
Sequence (P47901 whole entry): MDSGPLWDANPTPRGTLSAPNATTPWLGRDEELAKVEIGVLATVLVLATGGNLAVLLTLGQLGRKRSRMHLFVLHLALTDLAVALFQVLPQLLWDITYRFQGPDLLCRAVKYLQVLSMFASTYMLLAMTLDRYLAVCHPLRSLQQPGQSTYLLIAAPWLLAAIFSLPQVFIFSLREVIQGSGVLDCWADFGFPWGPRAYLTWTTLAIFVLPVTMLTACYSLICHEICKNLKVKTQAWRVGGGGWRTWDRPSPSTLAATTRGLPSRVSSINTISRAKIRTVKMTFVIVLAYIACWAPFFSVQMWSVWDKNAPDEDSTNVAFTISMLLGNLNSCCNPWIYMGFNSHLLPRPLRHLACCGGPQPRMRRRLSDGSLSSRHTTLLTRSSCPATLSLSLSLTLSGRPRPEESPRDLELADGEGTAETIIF
Assay: Agonist activity at recombinant human V1b receptor expressed in HEK293 cells assessed as increase in intracellular calcium level measured at 3 secs interval for 5 mins by fura-2/AM dye based micro spectrofluorometric method
Starred links: 1 amine or outer side, 2 acyl side, 3 side chain; linkers in the order of their positions; H or OH if unused. Positions of bridges follow the written chain, without caps; N, C: chain ends. Non-standard residues stand in square brackets, D forms with d. Residues, ends and D or L forms follow the SMILES beside them. Abu(4-yl) = O=C([C@H](CC[*:3])N[*:1])[*:2]; N(4-F-Bzl)Gly = O=C(O)CNCc1ccc(F)cc1
compounds and their reported pEC50
pEC50 is defined as minus the log10 of a concentration measured in mol/L.

INSERT INTO measurements (compound, target_or_test_system, value_measured) VALUES
  ('CC[C@H](C)[C@@H]1NC(=O)[C@H](Cc2ccc(O)cc2)NC(=O)[C@@H](N)CCSC[C@@H](C(=O)N(CC(=O)N[C@@H](CC(C)C)C(=O)NCC(N)=O)Cc2ccc(F)cc2)NC(=O)[C@H](CC(N)=O)NC(=O)[C@H](CCC(N)=O)NC1=O (H-[Abu(4-yl)]YIQNC[N(4-F-Bzl)Gly]LG-NH2; thioether 1-6)', 'Vasopressin V1b receptor (Homo sapiens, UniProt P47901)', 9.10);

Exam item: Quick check: pEC50 on Vasopressin V1b receptor (Homo sapiens, UniProt P47901), item CC[C@H](C)[C@@H]1NC(=O)[C@H](Cc2ccc(O)cc2)NC(=O)[C@@H](N)CSSC[C@@H](C(=O)N(CC(=O)N[C@@H](CC(C)C)C(=O)NCC(N)=O)Cc2ccc(F)cc2)NC(=O)[C@H](CC(N)=O)NC(=O)[C@H](CCC(N)=O)NC1=O (H-CYIQNC[N(4-F-Bzl)Gly]LG-NH2; disulfide 1-6) ?
Marked response: 9.30

###

Assay: Drug level in Slc:ICR mouse cerebrospinal fluid at 100 ng/g, iv measured after 30 mins by LC-MS/MS analysis
Format: ADME, organism-based
Settings: Slc:ICR, cerebrospinal fluid, 100 ng/g, read-out: Drug uptake
Positions of bridges follow the written chain, without caps; N, C: chain ends. Non-standard residues stand in square brackets, D forms with d. Residues, ends and D or L forms follow the SMILES beside them. N(4-F-Bzl)Gly = O=C(O)CNCc1ccc(F)cc1
value.type: concentration at 0.5 h (ng/mL)
Please reply with the bare figure in ng/mL and do not write the unit itself.

Exam item: Return reported concentration at 0.5 h; argument: CC[C@H](C)[C@@H]1NC(=O)[C@H](Cc2ccc(O)cc2)NC(=O)[C@@H](N)CSSC[C@@H](C(=O)N(CC(=O)N[C@@H](CC(C)C)C(=O)NCC(N)=O)Cc2ccc(F)cc2)NC(=O)[C@H](CC(N)=O)NC(=O)[C@H](CCC(N)=O)NC1=O (H-CYIQNC[N(4-F-Bzl)Gly]LG-NH2; disulfide 1-6)
Marked response: 0.1

###

Assay: Half life in Slc:ICR mouse plasma during fast phase at 100 ng/g, iv measured for 15 mins by LC-MS/MS analysis
Format: ADME, organism-based
Starred links: 1 amine or outer side, 2 acyl side, 3 side chain; linkers in the order of their positions; H or OH if unused. Positions of bridges follow the written chain, without caps; N, C: chain ends. Non-standard residues stand in square brackets, D forms with d. Residues, ends and D or L forms follow the SMILES beside them. N(4-F-Bzl)Gly = O=C(O)CNCc1ccc(F)cc1; X1 = O=C(CN(CCCO)[*:1])[*:2]
value.type: half-life (min)

INSERT INTO assay_data (molecule, value_measured) VALUES
  ('CC[C@H](C)[C@@H]1NC(=O)[C@H](Cc2ccc(O)cc2)NC(=O)[C@@H](N)CSSC[C@@H](C(=O)N(CCCO)CC(=O)N[C@@H](CC(C)C)C(=O)NCC(N)=O)NC(=O)[C@H](CC(N)=O)NC(=O)[C@H](CCC(N)=O)NC1=O (H-CYIQNC[X1]LG-NH2; disulfide 1-6)', 3.1),
  ('CC[C@H](C)[C@@H]1NC(=O)[C@H](Cc2ccc(O)cc2)NC(=O)[C@@H](N)CSSC[C@@H](C(=O)N2CCC[C@H]2C(=O)N[C@@H](CC(C)C)C(=O)NCC(N)=O)NC(=O)[C@H](CC(N)=O)NC(=O)[C@H](CCC(N)=O)NC1=O [OXYTOCIN]', 2.91),
  ('CC[C@H](C)[C@@H]1NC(=O)[C@H](Cc2ccc(O)cc2)NC(=O)[C@@H](N)CSSC[C@@H](C(=O)N(CC(=O)N[C@@H](CC(C)C)C(=O)NCC(N)=O)Cc2ccc(F)cc2)NC(=O)[C@H](CC(N)=O)NC(=O)[C@H](CCC(N)=O)NC1=O (H-CYIQNC[N(4-F-Bzl)Gly]LG-NH2; disulfide 1-6)', 2.84);

###

compounds and their reported Ratio EC50
Organism: Homo sapiens
Assay: Selectivity ratio of EC50 for recombinant human V1b receptor expressed in HEK293 cells to EC50 for recombinant human OTR expressed in HEK293 cells
Type: cell-based
Starred links: 1 amine or outer side, 2 acyl side, 3 side chain; linkers in the order of their positions; H or OH if unused. Positions of bridges follow the written chain, without caps; N, C: chain ends. Non-standard residues stand in square brackets, D forms with d. Residues, ends and D or L forms follow the SMILES beside them. Abu(4-yl) = O=C([C@H](CC[*:3])N[*:1])[*:2]; N(4-F-Bzl)Gly = O=C(O)CNCc1ccc(F)cc1
Respond numerically, and do not add a unit to the figure.

INSERT INTO assay_data (compound, value_type, value_measured) VALUES
  ('CC[C@H](C)[C@@H]1NC(=O)[C@H](Cc2ccc(O)cc2)NC(=O)[C@@H](N)CSSC[C@@H](C(=O)N(CC(=O)N[C@@H](CC(C)C)C(=O)NCC(N)=O)Cc2ccc(F)cc2)NC(=O)[C@H](CC(N)=O)NC(=O)[C@H](CCC(N)=O)NC1=O (H-CYIQNC[N(4-F-Bzl)Gly]LG-NH2; disulfide 1-6)', 'Ratio EC50', 17.5);

Now take the following compound into account.
Exam item: Return reported Ratio EC50; argument: CC[C@H](C)[C@@H]1NC(=O)[C@H](Cc2ccc(O)cc2)NC(=O)[C@@H](N)CCSC[C@@H](C(=O)N(CC(=O)N[C@@H](CC(C)C)C(=O)NCC(N)=O)Cc2ccc(F)cc2)NC(=O)[C@H](CC(N)=O)NC(=O)[C@H](CCC(N)=O)NC1=O (H-[Abu(4-yl)]YIQNC[N(4-F-Bzl)Gly]LG-NH2; thioether 1-6)
Marked response: 9

###

Biological target: Oxytocin receptor (Homo sapiens, UniProt P30559)
Sequence (P30559 whole entry): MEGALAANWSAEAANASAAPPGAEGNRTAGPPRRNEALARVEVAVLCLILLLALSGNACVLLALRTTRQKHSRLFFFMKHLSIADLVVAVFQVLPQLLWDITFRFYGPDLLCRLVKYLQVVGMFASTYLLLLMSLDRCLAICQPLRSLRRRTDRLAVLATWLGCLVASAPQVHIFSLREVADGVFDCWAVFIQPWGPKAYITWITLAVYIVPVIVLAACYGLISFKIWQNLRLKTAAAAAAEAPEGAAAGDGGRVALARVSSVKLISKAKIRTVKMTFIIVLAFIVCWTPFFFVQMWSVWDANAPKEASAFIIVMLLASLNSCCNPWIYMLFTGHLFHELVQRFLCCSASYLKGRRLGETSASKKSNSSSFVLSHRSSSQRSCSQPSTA
Assay: Agonist activity at recombinant human OTR expressed in HEK293 cells assessed as increase in intracellular calcium level measured at 3 secs interval for 5 mins by fura-2/AM dye based micro spectrofluorometric method
Starred links: 1 amine or outer side, 2 acyl side, 3 side chain; linkers in the order of their positions; H or OH if unused. Positions of bridges follow the written chain, without caps; N, C: chain ends. Non-standard residues stand in square brackets, D forms with d. Residues, ends and D or L forms follow the SMILES beside them. Abu(4-yl) = O=C([C@H](CC[*:3])N[*:1])[*:2]; N(4-F-Bzl)Gly = O=C(O)CNCc1ccc(F)cc1; X1 = O=C(CN(CCCO)[*:1])[*:2]
molecules and their reported EC50
Please reply with the bare figure in nM and do not write the unit itself.

INSERT INTO results (molecule, value_type, result_units, value_measured) VALUES
  ('CC[C@H](C)[C@@H]1NC(=O)[C@H](Cc2ccc(O)cc2)NC(=O)[C@@H](N)CSSC[C@@H](C(=O)N(CC(=O)N[C@@H](CC(C)C)C(=O)NCC(N)=O)Cc2ccc(F)cc2)NC(=O)[C@H](CC(N)=O)NC(=O)[C@H](CCC(N)=O)NC1=O (H-CYIQNC[N(4-F-Bzl)Gly]LG-NH2; disulfide 1-6)', 'EC50', 'nM', 0.028);

Exam item: Quick check: EC50 on Oxytocin receptor (Homo sapiens, UniProt P30559), item CC[C@H](C)[C@@H]1NC(=O)[C@H](Cc2ccc(O)cc2)NC(=O)[C@@H](N)CCSC[C@@H](C(=O)N(CCCO)CC(=O)N[C@@H](CC(C)C)C(=O)NCC(N)=O)NC(=O)[C@H](CC(N)=O)NC(=O)[C@H](CCC(N)=O)NC1=O (H-[Abu(4-yl)]YIQNC[X1]LG-NH2; thioether 1-6) ?
Marked response: 0.15

Exam item: Quick check: EC50 on Oxytocin receptor (Homo sapiens, UniProt P30559), item CC[C@H](C)[C@@H]1NC(=O)[C@H](Cc2ccc(O)cc2)NC(=O)[C@@H](N)CCSC[C@@H](C(=O)N(CC(=O)N[C@@H](CC(C)C)C(=O)NCC(N)=O)Cc2ccc(F)cc2)NC(=O)[C@H](CC(N)=O)NC(=O)[C@H](CCC(N)=O)NC1=O (H-[Abu(4-yl)]YIQNC[N(4-F-Bzl)Gly]LG-NH2; thioether 1-6) ?
Marked response: 0.089

Exam item: Quick check: EC50 on Oxytocin receptor (Homo sapiens, UniProt P30559), item CC[C@H](C)[C@@H]1NC(=O)[C@H](Cc2ccc(O)cc2)NC(=O)[C@@H](N)CSSC[C@@H](C(=O)N(CCCO)CC(=O)N[C@@H](CC(C)C)C(=O)NCC(N)=O)NC(=O)[C@H](CC(N)=O)NC(=O)[C@H](CCC(N)=O)NC1=O (H-CYIQNC[X1]LG-NH2; disulfide 1-6) ?
Marked response: 0.031
